# target.of.assay: E3 ubiquitin-protein ligase SIAH1 (Homo sapiens) (UniProt Q8IUQ4)
# Sequence (Q8IUQ4 whole entry, looked up): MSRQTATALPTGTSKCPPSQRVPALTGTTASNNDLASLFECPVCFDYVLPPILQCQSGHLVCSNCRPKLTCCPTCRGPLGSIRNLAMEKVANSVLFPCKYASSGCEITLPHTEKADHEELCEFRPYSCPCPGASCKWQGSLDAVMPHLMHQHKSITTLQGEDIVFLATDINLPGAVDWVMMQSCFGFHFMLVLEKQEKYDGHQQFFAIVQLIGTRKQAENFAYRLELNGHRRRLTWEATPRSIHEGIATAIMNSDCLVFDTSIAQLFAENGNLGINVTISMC
# experimental.protocol: Siah-1 peptide-binding antagonists, primary screen, biochemical, fluorescence polarization, rhodamine-plectin, uHTS (AID 1817);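 note: plate controls were Siah plus tracer with DMSO for no effect and tracer alone without Siah for full effect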
# conditions.used: Siah-1 / rhodamine-plectin peptide fluorescence polarization; at 20 µM; hits give high values
The campaign covered roughly 290,000 compounds. About 50 (0.02%) were called active. This excerpt belongs to a sample that is enriched for actives. Measured potencies and affinities stand elsewhere.
Item-by-item account of displacement
endpoint.name: displacement (%)

>>> observed_measurement("COc1cccc(C(=O)N2CCN(Cc3ccccc3Br)CC2)c1")
3.1
>>> observed_measurement("Cc1ccsc1/C=N/N=C/c1sccc1C")
-9.3
>>> observed_measurement("Nc1c(O)ccc2c1C(=O)c1ccccc1C2=O")
14.9
>>> observed_measurement("CC(C)(C)C(=O)Nc1ccc(C(=O)Nc2cccc(Oc3ccc(C(=O)O)c(C(=O)O)c3)c2)cc1")
24
>>> observed_measurement("Cc1nn(C)c(Oc2cccc(C(F)(F)F)c2)c1C=O")
-3.5
>>> observed_measurement("CC(=O)Nc1ccc(N=Cc2c(O)c3ccccc3oc2=O)cc1")
1.2
>>> observed_measurement("Nc1c(C(=O)NCc2ccco2)c2nc3ccccc3nc2n1CCc1ccc(F)cc1")
2.1
>>> observed_measurement("Cc1ccc(C(=O)Nc2ccc(Oc3ccc(C(=O)O)c(C(=O)O)c3)cc2)cc1C")
-3
>>> observed_measurement("C=CCc1cccc2cc(C(=O)Nc3ccc(F)cc3)c(=O)oc12")
5.1
>>> observed_measurement("O=C(NN1C(=O)C2C3C=CC(C3)C2C1=O)c1ccncc1 (centres undefined)")
3.2
>>> observed_measurement("CCO/C=C1\\C(=O)N(c2ccccc2)C(=O)c2ccccc21")
1.1
>>> observed_measurement("COc1ccc(CCn2c(N)c(C(=O)NCc3ccco3)c3nc4ccccc4nc32)cc1OC")
-1.3
>>> observed_measurement("O=C(N1CCN(c2ccccc2F)CC1)C12CC3CC(CC(C3)C1)C2")
-8.1
>>> observed_measurement("CC(SCc1ccccc1)C(=O)Nc1ccccc1Br (centres undefined)")
-6.3
>>> observed_measurement("O=c1cc(-c2ccccc2)[nH]n1-c1ccc([N+](=O)[O-])cc1")
-0.2
>>> observed_measurement("COc1cccc(OCc2cc(C(=O)NC3CCOCC3)no2)c1")
1.4
>>> observed_measurement("CC(=O)Nc1ccc(N=Cc2c(O)ccc3ccccc23)cc1")
-0.3
>>> observed_measurement("COc1ccccc1C(=O)Nc1ccnn1C1CCN(Cc2ccc3nonc3c2)CC1")
7.2
>>> observed_measurement("O=C(C1CCN(S(=O)(=O)c2ccc(F)cc2)CC1)N1CC=C(c2ccccc2)CC1")
3
>>> observed_measurement("COc1cc(OC)c(OC)cc1CN1CCCC(C(=O)c2sccc2C)C1 (centres undefined)")
-6.6
>>> observed_measurement("CCCN1C(=O)/C(=C/c2c(NCCCOCC)nc3c(C)cccn3c2=O)SC1=S")
-2.4
>>> observed_measurement("Cc1ccc(-n2ncc3c(NNC(=O)c4ccco4)ncnc32)cc1C")
3
>>> observed_measurement("C/C(=N\\OC(=O)Nc1ccccc1)c1cnn(-c2cc(C(F)(F)F)cc(C)n2)c1C")
5.7
>>> observed_measurement("O=C(NN1C(=O)C2CC=C(Cl)CC2C1=O)c1ccncc1 (centres undefined)")
69.4
>>> observed_measurement("COc1ccc(CCn2c(N)c(C(=O)NCc3ccco3)c3nc4ccccc4nc32)cc1")
57.5
>>> observed_measurement("CC12CCC(C(=O)NCc3ccco3)(OC1=O)C2(C)C (centres undefined)")
1.5
>>> observed_measurement("CC(C)(C)c1nnc(N/N=C/c2ccc(Br)cc2)n(N)c1=O")
7.3
>>> observed_measurement("Cc1cc(NS(=O)(=O)c2ccc(NC(=O)C(C)Oc3cc(C)c(Cl)c(C)c3)cc2)no1 (centres undefined)")
0.9
>>> observed_measurement("O=c1[nH]n(-c2ccccc2)c(=O)c2ccccc12")
0
>>> observed_measurement("O=C(NC1CCCC1)c1ccc(COc2ccccc2Br)o1")
2.7
>>> observed_measurement("COc1ccc(N2CCN(C(C)C(=O)N3CCc4ccccc43)CC2)cc1 (centres undefined)")
-5.4
>>> observed_measurement("O=c1[nH]c(-c2ccccc2Cl)nc2c1sc(=S)n2-c1ccccc1")
2.3
>>> observed_measurement("Cc1oc2cc(O)ccc2c(=O)c1-c1ccccc1")
8.8
>>> observed_measurement("CN1CCN(C(=O)c2cn(-c3ccccc3)nc2-c2cccnc2)CC1")
-0.3
